Study Target: UniProt:Q92633
Test Name: Beta-arrestin recruitment assay to determine IC50 values for human LPAR1
Reported Conditions: antagonist mode, Tango EDG2-bla U2OS cells, LPA 18:1 500 nM final
pIC50: −log10 of the molar value.
Measured Attribute: pIC50

Cc1ccc(NC(=O)C2(c3ccccc3C(C)C)CN(C(=O)C[C@@H](C)C(=O)O)C2)c(OC(F)F)n1 ... 7.74
Cc1ccc(NC(=O)C2(c3ccccc3C(C)C)CN(C(=O)[C@H]3C[C@H]3C(=O)O)C2)c(OC(F)F)n1 ... 7.89
COC(=O)CCCCS(=O)(=O)N1CC(C(=O)Nc2ccc(C)nc2OC(F)F)(c2ccccc2C(C)C)C1 ... 7.14
Cc1ccc(NC(=O)C2(c3ccccc3C(C)C)CN(C(=O)CCC(=O)C(F)(F)F)C2)c(OC(F)F)n1 ... 8.15
Cc1ccc(NC(=O)C2(c3ccccc3C(C)C)CN(C(=O)N3CCNCC3)C2)c(OC(F)F)n1 ... 6.57

1: CC(C)c1ccccc1C1(C(=O)Nc2ncc(Cl)cc2OC(F)F)CN(S(N)(=O)=O)C1
2: Cc1ccc(NC(=O)C2(c3ccccc3C(C)C)CN(C(=O)[C@@H]3C[C@@H]3C(=O)O)C2)c(OC(F)F)n1
**Query** Looking at 1 and 2 , which one comes out lower in pIC50 terms? Lab log: write the label of the selected item as the result.
**Result** 2

P: CCN(CC(=O)O)CC(=O)N1CC(C(=O)Nc2ccc(C)nc2OC(F)F)(c2ccccc2C(C)C)C1
Q: Cc1ccc(NC(=O)C2(c3ccccc3C(C)C)CN(Cc3ccc(C(=O)O)o3)C2)c(OC(F)F)n1
R: COC(=O)CS(=O)(=O)N1CCC(C(=O)Nc2ccc(C)nc2OC(F)F)(c2ccccc2C(C)C)CC1
S: COC(=O)c1[nH]ncc1S(=O)(=O)N1CC(C(=O)Nc2ccc(C)nc2OC(F)F)(c2ccccc2C(C)C)C1
**Query** Ascending sort, pIC50. List labels; respect the requested ordering.
**Result** S, P, Q, R
(S: 6.57, P: 7.32, Q: 7.92, R: 8.15)

P: Cc1ccc(NC(=O)C2(c3ccccc3C3CCCC3)CNC2)c(OC(F)F)n1
Q: Cc1ccc(NC(=O)C2(c3ccccc3C3CCCCC3)CN(C(=O)CC(C)(C)C(=O)O)C2)c(OC(F)F)n1
R: Cc1ccc(NC(=O)C2(c3ccccc3C(C)C)CN(Cc3cc(C(=O)O)no3)C2)c(OC(F)F)n1
**Query** Ascending sort, pIC50. List labels; respect the requested ordering.
**Result** R, Q, P
(R: 7.37, Q: 7.85, P: 8.07)

* * *

Study Target: human LPA1 receptor (Homo sapiens (Human))
Test Name: Beta-arrestin recruitment assay to determine IC50 values for human LPAR1
Reported Conditions: antagonist mode, Tango EDG2-bla U2OS cells, LPA 18:1 500 nM final
pIC50: −log10 of the molar value.
Measured Attribute: pIC50

Look over these answered cases.
CC(C)c1ccccc1C1(C(=O)Nc2ncc(Cl)cc2OC(F)F)CNC1 ... 7.82
Cc1ccc(NC(=O)C2(c3ccccc3C(C)C)CN(c3cc(F)ccn3)C2)c(OC(F)F)n1 ... 9.00
Cc1ccc(NC(=O)C2(c3ccccc3C(C)C)CN(CCC(C)(C)O)C2)c(OC(F)F)n1 ... 7.85
CC(C)c1ccccc1C1(C(=O)Nc2cc(F)cnc2OC(F)F)CN(C(=O)CC(C)(C)C(=O)O)C1 ... 7.39
Cc1ccc(NC(=O)C2(c3ccccc3C(C)C)CN(S(=O)(=O)NC3CC3)C2)c(OC(F)F)n1 ... 7.96
Cc1ccc(NC(=O)C2(c3ccccc3C(C)C)CCN(C(=O)OC(C)(C)C)CC2)c(OC(F)F)n1 ... 7.72
COC(=O)c1ccc(N2CC(C(=O)Nc3ccc(C)nc3OC(F)F)(c3ccccc3C(C)C)C2)nc1 ... 7.80
Cc1ccc(NC(=O)C2(c3ccccc3C(C)C)CN(C(=O)[C@@H](N)CO)C2)c(OC(F)F)n1 ... 7.22
CC(=O)N1CCC(CC(=O)N2CC(C(=O)Nc3ccc(C)nc3OC(F)F)(c3ccccc3C(C)C)C2)CC1 ... 6.65
Cc1ccc(NC(=O)C2(c3ccccc3C(C)C)CN(C(=O)C[C@@H]3COCCN3)C2)c(OC(F)F)n1 ... 7.21

1: CNC[C@H](O)CN1CC(C(=O)Nc2ccc(C)nc2OC(F)F)(c2ccccc2C(C)C)C1
2: CCOc1ccc(NC(=O)C2(c3ccccc3C(C)C)CN(S(N)(=O)=O)C2)c(OC)n1
**Query** Short answer wanted: higher pIC50, 1 or 2 ? Lab log: write the label of the selected item as the result.
**Result** 2
(2: 8.40, 1: 7.35)

* * *

Study Target: human LPA1 receptor (Homo sapiens (Human))
Test Name: Beta-arrestin recruitment assay to determine IC50 values for human LPAR1
Reported Conditions: antagonist mode, Tango EDG2-bla U2OS cells, LPA 18:1 500 nM final
Measured Attribute: IC50 (nM)

a: Cc1ccc(NC(=O)C2(c3ccccc3C(C)C)CN(C(=O)C3CS(=O)(=O)C3)C2)c(OC(F)F)n1 [Ex 12-129]
b: Cc1ccc(NC(=O)C2(c3ccccc3C(C)C)CCN(C(=O)CC(=O)O)CC2)c(OC(F)F)n1 [Ex 12-66]
c: Cc1ccc(NC(=O)C2(c3c(F)cccc3C(C)C)CN(C(=O)CC(C)(C)C(=O)O)C2)c(OC(F)F)n1 [Ex 39-4]
**Query** With the 3 compounds above, produce a list ordered by ascending IC50. List labels; respect the requested ordering.
**Result** c, b, a

P: CCOC(=O)Cc1coc(CN2CC(C(=O)Nc3ccc(C)nc3OC(F)F)(c3ccccc3C(C)C)C2)n1 [Ex 11-58]
Q: CCCc1ccccc1C1(C(=O)Nc2ccc(C)nc2OC(F)F)CN(C(=O)CC(C)(C)C(=O)O)C1 [Ex 31-7]
R: Cc1ccc(NC(=O)C2(c3ccccc3C(C)C)CN(c3nnn[nH]3)C2)c(OC(F)F)n1 [Ex 20]
**Query** List these items ordered by IC50, big to small. List labels; respect the requested ordering.
**Result** P, R, Q

* * *

Study Target: human LPA1 receptor (Homo sapiens (Human), UniProt Q92633)
Sequence (Q92633 whole entry): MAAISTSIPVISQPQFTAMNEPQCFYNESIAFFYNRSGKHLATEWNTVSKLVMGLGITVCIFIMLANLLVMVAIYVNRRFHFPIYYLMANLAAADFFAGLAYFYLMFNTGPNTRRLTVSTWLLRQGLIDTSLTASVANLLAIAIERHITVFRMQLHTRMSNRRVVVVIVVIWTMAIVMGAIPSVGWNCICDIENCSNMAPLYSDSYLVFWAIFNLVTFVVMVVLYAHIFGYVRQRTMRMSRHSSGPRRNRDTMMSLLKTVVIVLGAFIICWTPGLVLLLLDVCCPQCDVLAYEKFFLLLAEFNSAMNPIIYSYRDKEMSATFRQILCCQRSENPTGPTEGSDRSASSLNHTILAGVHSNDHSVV
Test Name: Beta-arrestin recruitment assay to determine IC50 values for human LPAR1
Reported Conditions: antagonist mode, Tango EDG2-bla U2OS cells, LPA 18:1 500 nM final
pIC50: −log10 of the molar value.
Measured Attribute: pIC50

Look over these answered cases.
COc1cc(Br)cnc1NC(=O)C1(c2ccccc2C(C)C)CNC1 ... 6.25
Cc1ccc(NC(=O)C2(c3ccccc3C(C)C)CN(C(=O)CCC(O)C(F)(F)F)C2)c(OC(F)F)n1 (stereo not drawn) ... 7.96
Cc1ccc(NC(=O)C2(c3ccccc3C(C)C)CN(C(=O)NC(C)(C)CC(=O)O)C2)c(OC(F)F)n1 ... 7.92
Cc1ccc(NC(=O)C2(c3ccccc3C(C)C)CN(C(=O)CC3(C(=O)O)CCOC3)C2)c(OC(F)F)n1 (stereo not drawn) ... 7.39
Cc1ccc(NC(=O)C2(c3ccccc3C(C)C)CN(C(=O)CCC(=O)O)C2)c(OC(F)F)n1 ... 8.00
CCOC(=O)CC(C)(C)CN1CC(C(=O)Nc2ccc(C)nc2OC(F)F)(c2ccccc2C(C)C)C1 ... 6.09
C=C(CC(=O)OC)C(=O)N1CC(C(=O)Nc2ccc(C)nc2OC(F)F)(c2ccccc2C(C)C)C1 ... 6.96
Cc1ccc(NC(=O)C2(c3ccccc3C(C)C)CN(CCC(C)(C)C(N)=O)C2)c(OC(F)F)n1 ... 7.19
COc1nc(C)ccc1NC(=O)C1(c2ccccc2C(C)C)CN(S(N)(=O)=O)C1 ... 7.30
CNC(C)(C)CN1CC(C(=O)Nc2ccc(C)nc2OC(F)F)(c2ccccc2C(C)C)C1 ... 7.20

I: Cc1ccc(NC(=O)C2(c3ccccc3C(C)C)CN(C(=O)CC3CCNCC3)C2)c(OC(F)F)n1
II: Cc1ccc(NC(=O)C2(c3ccccc3C(C)C)CN(C(=O)CNC(C)(C)CC(=O)O)C2)c(OC(F)F)n1
III: CC(C)c1ccccc1C1(C(=O)Nc2ncc(Br)cc2OC(F)F)CN(C(=O)NC2CC2)C1
**Query** Ascending sort, pIC50. List labels; respect the requested ordering.
**Result** II, I, III

* * *

Study Target: human LPA1 receptor (Homo sapiens (Human), UniProt Q92633)
Test Name: Beta-arrestin recruitment assay to determine IC50 values for human LPAR1
Reported Conditions: antagonist mode, Tango EDG2-bla U2OS cells, LPA 18:1 500 nM final
Measured Attribute: IC50 (µM)

CC(=O)N(CC(=O)N1CC(C(=O)Nc2ccc(C)nc2OC(F)F)(c2ccccc2C(C)C)C1)OCc1ccccc1 [Ex 12-135] ... 0.008

I: COCCN(CC(=O)O)CC(=O)N1CC(C(=O)Nc2ccc(C)nc2OC(F)F)(c2ccccc2C(C)C)C1 [Ex 55]
II: Cc1ccc(NC(=O)C2(c3ccccc3C(C)C)CN(c3ncc(C(=O)O)cn3)C2)c(OC(F)F)n1 [Ex 18-5]
**Query** Looking at I and II , which one comes out lower in IC50 terms? Lab log: write the label of the selected item as the result.
**Result** II
(II: 0.011 µM, I: 0.044 µM)
